The substances listed here are annotated with their target mRNA knockdown.
Conditions: siRNA; also: test system not given here
HELM strings list units from the 5' end as sugar, base in round brackets, then linkage (d deoxyribose, r ribose, m 2'-O-methyl, p phosphodiester). Strings are as the collection lists them, not checked against the first reports. ss, as = sense and antisense strand; [una] = unlocked nucleic acid
MEASURED_PROPERTY: target mRNA knockdown (%)

SUBSTANCE: RNA1{r(A)p.r(U)p.r(C)p.r(G)p.r(U)p.r(C)p.r(G)p.r(U)p.r(C)p.r(A)p.r(G)p.r(G)p.r(G)p.m(U)p.r(A)p.r(A)p.r(G)p.r(G)p.r(U)p.r(T)p.r(T)}|RNA2{r(A)p.r(C)p.r(C)p.r(U)p.m(U)p.r(A)p.r(C)p.r(C)p.r(C)p.r(U)p.r(G)p.r(A)p.r(C)p.r(G)p.r(A)p.r(C)p.r(G)p.r(A)p.r(U)p.r(T)p.r(T)}$$$RNA1{StrandType:ss}|RNA2{StrandType:as}$
RECORDED_MEASUREMENT: 49
//
SUBSTANCE: RNA1{r(G)p.r(U)p.r(A)p.r(U)p.r(G)p.r(A)p.r(C)p.r(C)p.r(G)p.r(A)p.r(C)p.r(U)p.r(A)p.r(C)p.r(G)p.r(C)p.r(G)p.r(U)p.r(A)p.r(T)p.r(T)}|RNA2{r(U)p.r(U)p.r(C)p.r(A)p.r(G)p.r(U)p.[una](G)p.r(U)p.r(G)p.r(A)p.r(U)p.r(G)p.r(A)p.r(C)p.r(A)p.r(C)p.r(U)p.r(U)p.r(G)p.r(T)p.r(T)}$$$RNA1{StrandType:ss}|RNA2{StrandType:as}$
RECORDED_MEASUREMENT: 86
//
SUBSTANCE: RNA1{r(A)p.r(A)p.r(C)p.r(C)p.r(C)p.r(A)p.r(C)p.r(C)p.r(A)p.r(C)p.r(A)p.r(G)p.r(C)p.r(U)p.r(A)p.r(G)p.r(A)p.r(A)p.r(C)p.r(U)p.r(U)}|RNA2{r(A)p.r(A)p.m(G)p.m(U)p.m(U)p.r(C)p.m(U)p.r(A)p.m(G)p.r(C)p.m(U)p.m(G)p.m(U)p.m(G)p.m(G)p.m(U)p.m(G)p.m(G)p.r(G)p.m(U)p.m(U)}$$$RNA1{StrandType:ss}|RNA2{StrandType:as}$
RECORDED_MEASUREMENT: 15

Where do the numbers come from? From the OligoGym collection.
